Reported χ (magnetic susceptibility) values for a set of compounds
# Method: Density and magnetic susceptibility of paramagnetic ionic liquids from MagLev levitation height of density standard beads
# Type: physicochemical
# Condition summary: calculated from levitation height vs density of standard beads (Mirica et al. JACS 2009 method)

Sample records with χ (magnetic susceptibility):
{"Compound": "COC(=O)[C@H](C)[NH3+].COC(=O)[C@H](C)[NH3+].COC(=O)[C@H](C)[NH3+].[Cl][Ho-3]([Cl])([Cl])([Cl])([Cl])[Cl] [[AlaC1]3 [HoCl6]]", "χ (magnetic susceptibility)": "9.70 ×10^−4"}
{"Compound": "CCCCn1cc[n+](C)c1.CCCCn1cc[n+](C)c1.CCCCn1cc[n+](C)c1.[Cl][Dy-3]([Cl])([Cl])([Cl])([Cl])[Cl] [[BMIM]3 [DyCl6]]", "χ (magnetic susceptibility)": "12.37 ×10^−4"}
{"Compound": "COC(=O)[C@H](C)[NH3+].COC(=O)[C@H](C)[NH3+].COC(=O)[C@H](C)[NH3+].[Cl][Gd-3]([Cl])([Cl])([Cl])([Cl])[Cl] [[AlaC1]3 [GdCl6]]", "χ (magnetic susceptibility)": "8.24 ×10^−4"}

// CCCC[n+]1ccn(C)c1.CCCC[n+]1ccn(C)c1.CCCC[n+]1ccn(C)c1.[Cl][Ho-3]([Cl])([Cl])([Cl])([Cl])[Cl] [[BMIM]3 [HoCl6]] : χ (magnetic susceptibility) value = 5.40 ×10^−4

Form field χ (magnetic susceptibility), entry CCCC[n+]1ccn(C)c1C.CCCC[n+]1ccn(C)c1C.CCCC[n+]1ccn(C)c1C.[Cl][Dy-3]([Cl])([Cl])([Cl])([Cl])[Cl] [[BDMIM]3 [DyCl6]] : 3.49 ×10^−4

* * *

# Method: Density and magnetic susceptibility of paramagnetic ionic liquids from MagLev levitation height of density standard beads
# Format: physicochemical
# Condition summary: calculated from levitation height vs density of standard beads (Mirica et al. JACS 2009 method)
# Description: The density of a diamagnetic object was determined, from its levitation height, by suspending the object in a container filled with paramagnetic ionic liquid and placed the container between two NdFeB magnets oriented with like poles facing each other (see FIG. 5). Before using the paramagnetic ionic liquids as liquids for density based measurement using Maglev, the density and magnetic susceptibility of each paramagnetic ionic liquid was first determined (examples shown in FIG. 6). […]
Property name: ρ (density) (g/mL)

Guide cases for ρ (density), answers given:
{"Compound": "CCCC[n+]1ccn(C)c1.CCCC[n+]1ccn(C)c1.CCCC[n+]1ccn(C)c1.[Cl][Ho-3]([Cl])([Cl])([Cl])([Cl])[Cl] [[BMIM]3 [HoCl6]]", "Property name": "ρ (density)", "Val": 1.29}
{"Compound": "CCCCCCCC[N+](C)(CCCCCCCC)CCCCCCCC.CCCCCCCC[N+](C)(CCCCCCCC)CCCCCCCC.CCCCCCCC[N+](C)(CCCCCCCC)CCCCCCCC.[Cl][Ho-3]([Cl])([Cl])([Cl])([Cl])[Cl] [[Aliq]3 [HoCl6]]", "Property name": "ρ (density)", "Val": 0.95}
{"Compound": "COC(=O)[C@H](C)[NH3+].COC(=O)[C@H](C)[NH3+].[Cl][Mn-2]([Cl])([Cl])[Cl] [[AlaC1]2 [MnCl4]]", "Property name": "ρ (density)", "Val": 1.24}
{"Compound": "COC(=O)[C@H](C)[NH3+].[Cl][Fe-]([Cl])([Cl])[Cl] [[AlaC1] [FeCl4]]", "Property name": "ρ (density)", "Val": 1.52}
{"Compound": "COC(=O)[C@H](C)[NH3+].COC(=O)[C@H](C)[NH3+].COC(=O)[C@H](C)[NH3+].[Cl][Gd-3]([Cl])([Cl])([Cl])([Cl])[Cl] [[AlaC1]3 [GdCl6]]", "Property name": "ρ (density)", "Val": 1.31}
{"Compound": "CCCC[n+]1ccn(C)c1.CCCC[n+]1ccn(C)c1.[Cl][Mn-2]([Cl])([Cl])[Cl] [[BMIM]2 [MnCl4]]", "Property name": "ρ (density)", "Val": 1.24}
{"Compound": "COC(=O)[C@H](C)[NH3+].COC(=O)[C@H](C)[NH3+].COC(=O)[C@H](C)[NH3+].[Cl][Ho-3]([Cl])([Cl])([Cl])([Cl])[Cl] [[AlaC1]3 [HoCl6]]", "Property name": "ρ (density)", "Val": 1.42}
{"Compound": "CCCCCCCC[N+](C)(CCCCCCCC)CCCCCCCC.CCCCCCCC[N+](C)(CCCCCCCC)CCCCCCCC.CCCCCCCC[N+](C)(CCCCCCCC)CCCCCCCC.[Br][Ho-3]([Br])([Br])([Br])([Br])[Br] [[Aliq]3 [HoBr6]]", "Property name": "ρ (density)", "Val": 1.08}

1 = CCCCn1cc[n+](C)c1.[Cl][Fe-]([Cl])([Cl])[Cl] [[BMIM] [FeCl4]]
2 = CCCCCCCC[N+](C)(CCCCCCCC)CCCCCCCC.CCCCCCCC[N+](C)(CCCCCCCC)CCCCCCCC.CCCCCCCC[N+](C)(CCCCCCCC)CCCCCCCC.[Cl][Gd-3]([Cl])([Cl])([Cl])([Cl])[Cl] [[Aliq]3 [GdCl6]]
Param metric = ρ (density); output whichever of 1 , 2 has the minimum value. In your reply, give the label of the chosen option.
2

// provenance: patent US20150135829A1
